methodDescription: Biodistribution studies in NMRI mice
Assay type: in vivo
reportedConditions: i.v., 2 min p.i.
Overview of recorded Percentage of ID, kidneys for various compounds
Field note: include the unit after the figure.

// known answers, use as guide
# compound, resultType, observedValue
measured = [
    ("NS(=O)(=O)c1ccc(CCNC(=O)c2ccc(OCC[18F])cc2)cc1 [[^18F]-(3)]", "Percentage of ID, kidneys", "10.6 ± 0.8 % ID"),
    ("[11CH3]Oc1ccc(S(N)(=O)=O)cc1 [[^11C]-(6), 4-[^11C]methoxybenzene sulfonamide]", "Percentage of ID, kidneys", "3.7 ± 0.1 % ID"),
    ("NS(=O)(=O)c1ccc(OCC[18F])cc1 [[^18F]-(5)]", "Percentage of ID, kidneys", "4.1 ± 0.8 % ID"),
]

Now let's try a different one.
Request: May I ask what Percentage of ID, kidneys has been recorded for [11CH3]Oc1ccc(C(=O)NCCc2ccc(S(N)(=O)=O)cc2)cc1 [[^11C]-(4)] ?
Result: 8.1 ± 1.3 % ID

====

methodDescription: Biodistribution studies in NMRI mice
Assay type: in vivo
reportedConditions: i.v., 60 min p.i.
Overview of recorded Percentage of ID, heart for various molecules
Answer format: numeric, % ID implied, no suffix.

// known answers, use as guide
# molecule, unitOfMeasurement, observedValue
data = [
    ("NS(=O)(=O)c1ccc(OCC[18F])cc1 [[^18F]-(5)]", "% ID", 0.6),
    ("[11CH3]Oc1ccc(S(N)(=O)=O)cc1 [[^11C]-(6), 4-[^11C]methoxybenzene sulfonamide]", "% ID", 0.4),
    ("NS(=O)(=O)c1ccc(CCNC(=O)c2ccc(OCC[18F])cc2)cc1 [[^18F]-(3)]", "% ID", 0.2),
]

Now let's try a different one.
Request: May I ask what Percentage of ID, heart has been recorded for [11CH3]Oc1ccc(C(=O)NCCc2ccc(S(N)(=O)=O)cc2)cc1 [[^11C]-(4)] ?
Result: 0.5

====

methodDescription: Biodistribution studies in NMRI mice
Assay type: in vivo
reportedConditions: i.v., 60 min p.i.
Overview of recorded Percentage of ID, stomach for various compounds
Answer format: numeric, % ID implied, no suffix.

# compound, observedValue
measured = [
    ("NS(=O)(=O)c1ccc(OCC[18F])cc1 [[^18F]-(5)]", 4.2),
]

Request: May I ask what Percentage of ID, stomach has been recorded for [11CH3]Oc1ccc(C(=O)NCCc2ccc(S(N)(=O)=O)cc2)cc1 [[^11C]-(4)] ?
Result: 2.6

Request: May I ask what Percentage of ID, stomach has been recorded for [11CH3]Oc1ccc(S(N)(=O)=O)cc1 [[^11C]-(6), 4-[^11C]methoxybenzene sulfonamide] ?
Result: 2.4

Request: May I ask what Percentage of ID, stomach has been recorded for NS(=O)(=O)c1ccc(CCNC(=O)c2ccc(OCC[18F])cc2)cc1 [[^18F]-(3)] ?
Result: 1.9

====

Overview of recorded Percentage of ID, lungs for various compounds
methodDescription: Biodistribution studies in NMRI mice
Format: in vivo
reportedConditions: i.v., 2 min p.i.
Answer format: numeric, % ID implied, no suffix.

// known answers, use as guide
# compound, resultType, observedValue
data = [
    ("[11CH3]Oc1ccc(C(=O)NCCc2ccc(S(N)(=O)=O)cc2)cc1 [[^11C]-(4)]", "Percentage of ID, lungs", 4.9),
    ("NS(=O)(=O)c1ccc(OCC[18F])cc1 [[^18F]-(5)]", "Percentage of ID, lungs", 7.3),
    ("NS(=O)(=O)c1ccc(CCNC(=O)c2ccc(OCC[18F])cc2)cc1 [[^18F]-(3)]", "Percentage of ID, lungs", 2.3),
]

Request: May I ask what Percentage of ID, lungs has been recorded for [11CH3]Oc1ccc(S(N)(=O)=O)cc1 [[^11C]-(6), 4-[^11C]methoxybenzene sulfonamide] ?
Result: 6.3

====

Overview of recorded SUV, heart for various compounds
methodDescription: Biodistribution studies in NMRI mice
Type: in vivo
reportedConditions: i.v., 2 min p.i.
Experimental: The biodistribution studies were performed in wild-type NMRI mice with body weights ranging from 30 to 40 g. Mice were intravenously injected with 0.1 MBq of ^18F]-(3) or ^18F]-(5) and 5.5 MBq of ^11C]-(4) or ^11C]-(6) under anesthesia (2% isoflurane in O2 at a flow rate of 1 L/min). The animals were killed by decapitation at 2 min or 60 min p.i. (n = 4/time point for ^18F]-(3), ^11C]-(4), and ^11C]-(6); n = 6 for ^18F]-(5)). […]

// known answers, use as guide
# compound, SUV, heart
rows = [
    ("NS(=O)(=O)c1ccc(OCC[18F])cc1 [[^18F]-(5)]", "1.6 ± 0.4"),
    ("NS(=O)(=O)c1ccc(CCNC(=O)c2ccc(OCC[18F])cc2)cc1 [[^18F]-(3)]", "2.3 ± 1.3"),
    ("[11CH3]Oc1ccc(S(N)(=O)=O)cc1 [[^11C]-(6), 4-[^11C]methoxybenzene sulfonamide]", "1.6 ± 0.4"),
]

Request: May I ask what SUV, heart has been recorded for [11CH3]Oc1ccc(C(=O)NCCc2ccc(S(N)(=O)=O)cc2)cc1 [[^11C]-(4)] ?
Result: 1.2 ± 0.2

====

Overview of recorded Percentage of ID, intestines for various molecules
methodDescription: Biodistribution studies in NMRI mice
Format: in vivo
reportedConditions: i.v., 2 min p.i.

# molecule, observedValue
measured = [
    ("[11CH3]Oc1ccc(C(=O)NCCc2ccc(S(N)(=O)=O)cc2)cc1 [[^11C]-(4)]", "3.6 ± 1.3 % ID"),
    ("NS(=O)(=O)c1ccc(OCC[18F])cc1 [[^18F]-(5)]", "2.9 ± 0.4 % ID"),
    ("[11CH3]Oc1ccc(S(N)(=O)=O)cc1 [[^11C]-(6), 4-[^11C]methoxybenzene sulfonamide]", "5.2 ± 0.9 % ID"),
]

Now let's try a different one.
Request: May I ask what Percentage of ID, intestines has been recorded for NS(=O)(=O)c1ccc(CCNC(=O)c2ccc(OCC[18F])cc2)cc1 [[^18F]-(3)] ?
Result: 5.9 ± 0.8 % ID

====

methodDescription: Biodistribution studies in NMRI mice
Assay type: in vivo
reportedConditions: i.v., 60 min p.i.
resultType: Percentage of ID, liver (% ID)
Answer format: numeric, % ID implied, no suffix.

Request: May I ask what Percentage of ID, liver has been recorded for NS(=O)(=O)c1ccc(CCNC(=O)c2ccc(OCC[18F])cc2)cc1 [[^18F]-(3)] ?
Result: 8.3

====

methodDescription: Biodistribution studies in NMRI mice
Type: in vivo
reportedConditions: i.v., 2 min p.i.
resultType: Percentage of ID, carcass (% ID)
Answer format: numeric, % ID implied, no suffix.

# molecule, Percentage of ID, carcass, % ID
records = [
    ("[11CH3]Oc1ccc(S(N)(=O)=O)cc1 [[^11C]-(6), 4-[^11C]methoxybenzene sulfonamide]", 28.4),
    ("NS(=O)(=O)c1ccc(CCNC(=O)c2ccc(OCC[18F])cc2)cc1 [[^18F]-(3)]", 18.10),
    ("NS(=O)(=O)c1ccc(OCC[18F])cc1 [[^18F]-(5)]", 18.8),
]

Now let's try a different one.
Request: May I ask what Percentage of ID, carcass has been recorded for [11CH3]Oc1ccc(C(=O)NCCc2ccc(S(N)(=O)=O)cc2)cc1 [[^11C]-(4)] ?
Result: 17.6

====

methodDescription: Biodistribution studies in NMRI mice
Type: in vivo
reportedConditions: i.v., 60 min p.i.
resultType: Percentage of ID, lungs (% ID)
Answer format: numeric, % ID implied, no suffix.

# molecule, resultType, observedValue
rows = [
    ("NS(=O)(=O)c1ccc(OCC[18F])cc1 [[^18F]-(5)]", "Percentage of ID, lungs", 1.8),
    ("NS(=O)(=O)c1ccc(CCNC(=O)c2ccc(OCC[18F])cc2)cc1 [[^18F]-(3)]", "Percentage of ID, lungs", 0.7),
    ("[11CH3]Oc1ccc(S(N)(=O)=O)cc1 [[^11C]-(6), 4-[^11C]methoxybenzene sulfonamide]", "Percentage of ID, lungs", 3.1),
]

Now let's try a different one.
Request: May I ask what Percentage of ID, lungs has been recorded for [11CH3]Oc1ccc(C(=O)NCCc2ccc(S(N)(=O)=O)cc2)cc1 [[^11C]-(4)] ?
Result: 4.2

====

Overview of recorded Percentage of ID, heart for various molecules
methodDescription: Biodistribution studies in NMRI mice
Type: in vivo
reportedConditions: i.v., 2 min p.i.
Answer format: numeric, % ID implied, no suffix.

// known answers, use as guide
# molecule, observedValue
measured = [
    ("NS(=O)(=O)c1ccc(OCC[18F])cc1 [[^18F]-(5)]", 0.6),
    ("[11CH3]Oc1ccc(C(=O)NCCc2ccc(S(N)(=O)=O)cc2)cc1 [[^11C]-(4)]", 0.5),
    ("[11CH3]Oc1ccc(S(N)(=O)=O)cc1 [[^11C]-(6), 4-[^11C]methoxybenzene sulfonamide]", 0.7),
]

Now let's try a different one.
Request: May I ask what Percentage of ID, heart has been recorded for NS(=O)(=O)c1ccc(CCNC(=O)c2ccc(OCC[18F])cc2)cc1 [[^18F]-(3)] ?
Result: 0.8
